assay: Determination of the lethal dose in mice after acute administration; details: mouse, in vivo, po, 500 mg/kg, administered orally, read-out: Percent toxicity (percentage of animals which die within 72 hours)
This section presents compounds with their documented mortality at 72 h values.
Output spec: scalar in %, unitless text.

Recorded mortality at 72 h, per entry:
COc1ccc(-c2cnc(N3CCC(O)CC3)nc2)cc1 | 0
OC1CCN(c2ncc(-c3cccc(Cl)c3)cn2)CC1 | 0
O=C1CCN(c2ncc(-c3ccc(Cl)cc3Cl)nn2)CC1 | 20
OC1CCN(c2ncc(-c3ccc(Cl)cc3Cl)nn2)CC1 | 20
CNC(=O)OC1CCN(c2ncc(-c3ccccc3Cl)cn2)CC1 | 0

Challenge: What does the data say about its mortality at 72 h? Entry: OC1CCN(c2ncc(-c3cccc4ccccc34)cn2)CC1
Response given: 0
